B1: library; a variant is named by its letters at N, in order (parent)
chain: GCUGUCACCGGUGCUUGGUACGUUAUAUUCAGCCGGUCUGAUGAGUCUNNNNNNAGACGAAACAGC

- Variants of: B1
- procedure_summary: normalized RNA/DNA level with ligand (relative to sTRSVctl = 100) (log10 (% of sTRSVctl)); HEK293T overexpressing SLC46A1; ligand concentration (+) RNA-Seq: 6 mM; higher = less ribozyme self-cleavage, higher mRNA level
- experimental_context: with (6R,S)-folinic acid; ligand present: yes
assay_metric: normalized RNA/DNA level with ligand (log10)
Reply with just the number.

[[record]]
mutation_descriptor = "UUGUGG"
quantitative_readout = 2.06

[[record]]
mutation_descriptor = "ACAAAU"
quantitative_readout = 2.01

[[record]]
mutation_descriptor = "AUAAUG"
quantitative_readout = 2


Reported normalized RNA/DNA level with ligand (log10) for "CCGUCC" was 2.06

Per the records, this variant ( "GAUCAU" ) has normalized RNA/DNA level with ligand (log10) equal to 2.02

For record "CUCGGA" the listed normalized RNA/DNA level with ligand (log10) is 2.01

Entry "AAGAGG" — recorded normalized RNA/DNA level with ligand (log10) = 1.99

Measured normalized RNA/DNA level with ligand (log10) of "AAUGUC" : 2.04

Measured normalized RNA/DNA level with ligand (log10) of "ACGUAC" : 2.02
